# System: PC-3 cells
# test-protocol: PC-3 cell viability analysis (MTT)
# Format: cell-based, human
# test-conditions: Homo sapiens, PC-3; 24 h; 1% FBS-containing RPMI 1640 medium; read-out: dose required to induce 50% PC-3 cell death
# Protocol: Cell Culture PC-3 (p53−/−) human androgen-nonresponsive prostate cancer cells were purchased from the American Type Tissue Collection (Manassas, Va.). […] Cell viability analysis The effect of 4-[5-(4-methylphenyl)-3-(trifluoromethyl)-1H-pyrazol-1-yl]benzenesulfonamide and its derivatives on PC-3 cell viability was assessed by using the MTT {[3-(4,5-dimethylthiazol-2-yl)-2,5-diphenyl-2H-tetrazolium bromide]} assay in six replicates. […] Absorbance at 570 nm was determined on a plate reader.
endpoint-name: IC50

The value of IC50 measured for the compound NS(=O)(=O)c1ccc(-n2nc(C(F)(F)F)cc2-c2ccc3c(ccc4ccccc43)c2)cc1 [Compound 59] turned out to be 5 µM

Numbers sourced from patent US8541460B2.
